B1: EHEE_rd3_0053 (parent)
chain: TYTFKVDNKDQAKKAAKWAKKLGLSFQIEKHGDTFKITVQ

variants of: B1; assay: folding stability dG (cDNA display proteolysis); higher = more stable; settings: PBS, room temperature
Readout name: folding stability dG (kcal/mol)
Give bare numbers, in kcal/mol.

Observe how each entry below is paired with its result.
1) K30R    2.5
2) F35Q    0.075
3) K30M    2.16

Go through the items and report each one's folding stability dG.
1. T3H
2. T3P
3. D33Y
4. F35S
5. D10P
6. W18M

1: 2.1; 2: 0.945; 3: 1.8; 4: -0.159; 5: 1.89; 6: 1.68

The reported measurements were obtained from the MegaScale stability set (Tsuboyama et al. 2023).
